test: chemical genetic growth profiling, strain panel (AID 1159580);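 further: tested at 20 µM; growth read once vehicle control cultures reached saturation at 30 °C; lower values mean less growth of the strain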; conditions: S. cerevisiae deletion strains, growth OD, locus YNL322C, strain KRE1 (second series)
Out of some 5,500 compounds screened, about 2,000 (36%) were called active. About 18% were inconclusive and are not listed. No stated cut-off is given here; in the data, active means normalized growth mostly below about 0.91 (no sharp cut-off); inconclusive means no clear call, values can overlap the other calls; inactive means mostly above about 0.92. This is one part of the list.
Write down the outcome that applies. Available outcomes: active, inactive

{"compound": "O=c1ccc2c(O)c3ccoc3cc2o1", "labelClass": "inactive"}
{"compound": "COc1cc(OC)c2ccc(=O)oc2c1", "labelClass": "inactive"}
{"compound": "COc1cc2occc2c2oc(=O)ccc12", "labelClass": "inactive"}
{"compound": "O=C(O[C@@H]1Cc2c(O)cc(O)cc2O[C@@H]1c1cc(O)c(=O)c2c(O)c(O)cc([C@H]3Oc4cc(O)cc(O)c4C[C@H]3O)c2c1)c1cc(O)c(O)c(O)c1", "labelClass": "inactive"}
{"compound": "CC(CC(C(N)=O)(c1ccccc1)c1ccccc1)N(C)C (stereo not given)", "labelClass": "inactive"}

Problem: I'd appreciate the recorded outcome for Cc1ccccc1OCC(O)CO (stereo not given) from this test.
Result: inactive

Problem: I'd appreciate the recorded outcome for O=C(O[C@@H]1Cc2c(O)cc(O)cc2O[C@@H]1c1cc(O)c(=O)c2c(O)c(O)cc([C@H]3Oc4cc(O)cc(O)c4C[C@H]3OC(=O)c3cc(O)c(O)c(O)c3)c2c1)c1cc(O)c(O)c(O)c1 from this test.
Result: active

Problem: Could you kindly confirm the outcome this assay logged for COc1c2ccoc2cc2oc(=O)ccc12 ?
Result: inactive

Problem: Each compound tested received a call. Report the one for NC(N)=NC(=O)c1nc(Cl)c(N)nc1N .
Result: inactive

Problem: Look up the recorded call for CC(C)[N+](C)(CCC(C(N)=O)(c1ccccc1)c1ccccc1)C(C)C in this test.
Result: inactive
